PROCEDURE_DETAILS: Half life in rat administered with 3 mg/kg, iv
Type: ADME, organism-based
Set-up: dose 3 mg/kg, route intravenous
TEST_PARAMETERS: in vivo
ASSAY_ENDPOINT: half-life (h)
Write the answer as a number in h, unit excluded.

Asked: Tell me the measured half-life of CCOc1cc(O[C@H]2CCOC2)cc(C(Nc2ccc(C(=N)N)cc2)C(=O)O)c1 (stereo partly specified) , please.
Given back: 1.4

----------
SYSTEM_UNDER_TEST: Coagulation factor VII/tissue factor (Homo sapiens) (UniProt P08709+P13726)
TEST_PARAMETERS: Plasma
Description: Anticoagulant potency in human citreated plasma as measured by prothrombin time
Listed compounds paired with reported log10 2PT
// do not treat as linear: log10 of 2PT, unit µM

Here is how some compounds turned out for log10 2PT.
COMPOUND	log10 2PT
CCOc1cc(-c2cccnc2)cc(C(Nc2ccc(C(=N)N)cc2)C(=O)O)c1 (stereo unspecified)	1.07
COc1cc(C(Nc2ccc(C(=N)N)cc2)C(=O)O)ccc1OCc1ccccc1 (stereo unspecified)	1.08
CCOc1cc(OC2CCN(S(C)(=O)=O)CC2)cc(C(Nc2ccc(C(=N)N)cc2)C(=O)O)c1 (stereo unspecified)	0.68
CCOc1cc(-c2ccccc2)cc(C(Nc2ccc(C(=N)N)cc2)C(=O)O)c1 (stereo unspecified)	1.55
C#Cc1cc(OC2CCOCC2)cc(C(Nc2ccc(C(=N)N)cc2)C(=O)O)c1 (stereo unspecified)	0.53
C#Cc1cc(O[C@@H]2CCOC2)cc(C(Nc2ccc(C(=N)N)cc2)C(=O)O)c1 (stereo partly specified)	0.96
CCOc1cc(C(Nc2ccc(C(=N)N)cc2)C(=O)O)ccc1OCc1ccccc1 (stereo unspecified)	0.94
CCOc1cc(OC2CCOCC2)cc(C(Nc2ccc(C(=N)N)cc2)C(=O)O)c1 (stereo unspecified)	0.68
C=Cc1cc(OC2CCOCC2)cc(C(Nc2ccc(C(=N)N)cc2)C(=O)O)c1 (stereo unspecified)	0.77
CCOc1cc(O[C@H]2CC[C@H](O)CC2)cc(C(Nc2ccc(C(=N)N)cc2)C(=O)O)c1 (stereo partly specified)	0.73

Proceed to the following item.
Asked: Please state recorded log10 2PT (tested on Coagulation factor VII/tissue factor (Homo sapiens) (UniProt P08709+P13726)) of C#Cc1cc(O[C@H]2CCOC2)cc(C(Nc2ccc(C(=N)N)cc2)C(=O)O)c1 (stereo partly specified)
Given back: 0.63
